Attribution: ChEMBL document CHEMBL4265934

molecular target: Phosphatidylinositol 4,5-bisphosphate 3-kinase catalytic subunit delta isoform (Homo sapiens) (UniProt O00329); assay: Inhibition of PI3Kdelta in human basophils assessed as reduction in IgE-induced degranulation by measuring CD203c expression level at 100 uM by fluorescence assay relative to control; set-up: scale not given: the % may be the effect or the level left
Sequence (O00329 whole entry, canonical isoform): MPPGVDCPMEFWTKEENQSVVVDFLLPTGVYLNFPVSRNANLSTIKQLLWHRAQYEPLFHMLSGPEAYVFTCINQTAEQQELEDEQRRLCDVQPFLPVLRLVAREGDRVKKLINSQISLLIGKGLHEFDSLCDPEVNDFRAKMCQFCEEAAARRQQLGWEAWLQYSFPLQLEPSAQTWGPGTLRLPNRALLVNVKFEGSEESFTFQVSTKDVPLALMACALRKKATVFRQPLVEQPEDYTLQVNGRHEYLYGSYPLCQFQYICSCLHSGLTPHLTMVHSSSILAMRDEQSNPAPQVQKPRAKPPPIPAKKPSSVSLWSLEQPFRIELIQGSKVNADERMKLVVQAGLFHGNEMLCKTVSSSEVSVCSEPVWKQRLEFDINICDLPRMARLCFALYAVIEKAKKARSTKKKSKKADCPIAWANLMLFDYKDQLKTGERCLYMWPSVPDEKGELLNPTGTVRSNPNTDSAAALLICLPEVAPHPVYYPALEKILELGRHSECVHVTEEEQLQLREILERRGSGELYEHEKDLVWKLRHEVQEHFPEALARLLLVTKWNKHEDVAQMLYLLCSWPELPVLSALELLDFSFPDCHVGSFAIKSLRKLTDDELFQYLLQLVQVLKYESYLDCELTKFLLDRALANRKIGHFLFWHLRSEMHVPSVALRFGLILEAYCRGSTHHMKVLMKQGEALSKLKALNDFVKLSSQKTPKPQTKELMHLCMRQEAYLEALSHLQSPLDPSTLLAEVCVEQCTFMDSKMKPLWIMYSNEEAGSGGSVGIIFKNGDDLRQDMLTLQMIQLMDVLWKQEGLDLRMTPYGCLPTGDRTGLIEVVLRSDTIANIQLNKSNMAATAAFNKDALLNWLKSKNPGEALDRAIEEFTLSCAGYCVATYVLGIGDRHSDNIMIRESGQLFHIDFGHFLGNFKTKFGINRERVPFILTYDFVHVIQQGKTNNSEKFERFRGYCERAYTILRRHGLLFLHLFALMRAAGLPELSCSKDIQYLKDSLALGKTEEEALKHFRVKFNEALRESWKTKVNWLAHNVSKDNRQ
Label key: Criterion met means Activity under 80%; Criterion not met means Activity of 80% or more.

Worked set:
SMILES_CODE	ASSIGNED_CATEGORY
COc1ccc(C(=O)/C=C/c2cc(OC)c(OC)c(OC)c2)c(O)c1	Criterion not met
COc1cc(O)c(C(=O)/C=C/c2c(OC)cccc2OC)c(OC)c1	Criterion not met
COc1cc(OC)c(C2CCN(C)CC2)c(O)c1C(=O)/C=C/c1c(Cl)cccc1Cl	Criterion met

Q: Say whether its Activity is strictly beneath 80%. Entry: `COc1cc(OC)c(/C=C/C(=O)c2ccc(OC)c(OC)c2)c(OC)c1`
Result: Criterion not met

Q: Say whether its Activity is strictly beneath 80%. Entry: `COc1cccc(OC)c1/C=C/C(=O)c1c(OC)cc(OC)c(C2CCN(C)CC2)c1O`
Result: Criterion met
